Target: CST (CTC1-STN1-TEN1) (Homo sapiens, UniProt Q2NKJ3;Q9H668;Q86WV5 1-1217;1-368;1-123)
Sequence (Q2NKJ3 whole entry, chain 1 of 3): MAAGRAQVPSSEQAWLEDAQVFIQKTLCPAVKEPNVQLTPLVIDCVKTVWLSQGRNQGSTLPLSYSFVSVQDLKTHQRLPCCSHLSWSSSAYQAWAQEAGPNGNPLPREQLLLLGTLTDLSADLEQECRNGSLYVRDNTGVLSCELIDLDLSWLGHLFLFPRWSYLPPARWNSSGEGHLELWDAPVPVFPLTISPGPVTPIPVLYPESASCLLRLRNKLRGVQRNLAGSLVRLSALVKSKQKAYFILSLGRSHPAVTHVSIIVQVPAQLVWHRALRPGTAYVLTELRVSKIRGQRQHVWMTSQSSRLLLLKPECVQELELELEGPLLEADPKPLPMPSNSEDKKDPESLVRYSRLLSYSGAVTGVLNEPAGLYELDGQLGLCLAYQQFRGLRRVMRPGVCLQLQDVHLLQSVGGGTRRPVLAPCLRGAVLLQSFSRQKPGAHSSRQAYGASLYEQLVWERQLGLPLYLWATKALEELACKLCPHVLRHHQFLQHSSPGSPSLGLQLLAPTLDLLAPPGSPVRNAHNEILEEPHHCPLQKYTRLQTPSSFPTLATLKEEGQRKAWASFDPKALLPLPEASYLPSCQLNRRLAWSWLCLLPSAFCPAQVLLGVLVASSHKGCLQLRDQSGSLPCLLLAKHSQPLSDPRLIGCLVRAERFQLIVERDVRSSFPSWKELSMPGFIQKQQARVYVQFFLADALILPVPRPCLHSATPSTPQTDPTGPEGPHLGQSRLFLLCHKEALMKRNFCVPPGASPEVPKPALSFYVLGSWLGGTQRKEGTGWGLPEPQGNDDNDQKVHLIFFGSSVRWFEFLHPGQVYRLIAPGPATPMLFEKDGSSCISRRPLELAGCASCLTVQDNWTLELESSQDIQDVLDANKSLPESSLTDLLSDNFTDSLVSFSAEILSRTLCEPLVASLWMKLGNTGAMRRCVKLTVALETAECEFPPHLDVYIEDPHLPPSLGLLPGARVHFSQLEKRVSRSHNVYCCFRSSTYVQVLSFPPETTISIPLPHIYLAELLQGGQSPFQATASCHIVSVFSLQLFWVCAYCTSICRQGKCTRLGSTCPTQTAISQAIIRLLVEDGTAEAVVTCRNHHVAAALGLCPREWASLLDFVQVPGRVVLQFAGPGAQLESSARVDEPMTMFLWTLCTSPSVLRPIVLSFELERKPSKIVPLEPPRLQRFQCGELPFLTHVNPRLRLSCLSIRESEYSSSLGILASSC
Sequence (Q9H668 whole entry, chain 2 of 3): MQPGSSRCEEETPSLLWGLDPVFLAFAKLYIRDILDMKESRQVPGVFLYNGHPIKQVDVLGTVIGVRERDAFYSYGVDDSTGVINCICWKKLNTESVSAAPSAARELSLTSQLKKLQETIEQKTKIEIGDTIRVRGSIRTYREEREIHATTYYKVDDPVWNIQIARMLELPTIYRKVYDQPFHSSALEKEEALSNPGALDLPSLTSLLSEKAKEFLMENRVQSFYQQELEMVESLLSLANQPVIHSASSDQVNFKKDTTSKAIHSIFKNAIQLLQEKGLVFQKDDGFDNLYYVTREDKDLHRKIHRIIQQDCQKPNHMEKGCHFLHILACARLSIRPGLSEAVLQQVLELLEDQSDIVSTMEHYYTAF
Sequence (Q86WV5 whole entry, chain 3 of 3): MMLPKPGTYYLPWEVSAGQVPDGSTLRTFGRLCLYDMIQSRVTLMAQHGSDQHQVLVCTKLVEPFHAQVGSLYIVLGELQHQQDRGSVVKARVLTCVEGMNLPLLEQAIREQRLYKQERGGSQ
Test: EMSA; apparent Kd; EMSA: 25 mM Tris-HCl pH 8.0, 100 mM NaCl, 1 mM DTT; 0.1 nM DNA, 30 min RT (Kd(app): 0.01 nM DNA, 18 h, 4 °C). smFRET: 25 mM Tris-HCl pH 8.0, 150 mM NaCl, 1 mM D
Conditions: protein: recombinant; tags: FLAG-CTC1, FLAG-STN1, untagged TEN1; copies: 1;1;1; label: 32P
pKd for assorted binders
// pKd is dimensionless: -log10 of concentration (M)

Known pKd results, listed for orientation:
[
  {
    "binder": "GGTTAGGGTTAGGGTTAGGGTTAGGGTTAGGGTTAG (ssDNA) [Tel-36]",
    "numeric_value": 10.70
  },
  {
    "binder": "AGCGTATCCGTTCAGTTGAGCGTATCCGTTCAGTTGAGCGTATCCGTT (ssDNA) [NonTel-48]",
    "numeric_value": 11.00
  }
]

Turning to the following binder.
Task: Looking for the measured pKd of GGTTAGGGTTAGGGTTAG (ssDNA) [Tel-18] , can you help?
Output: 9.68

These entries and their values trace back to paper PMC6053418.
